The origin of these recorded values is PubChem BioAssay (NCI).

Listed here: items and their measured TGI.
- System: KM12 colon
- assay.explanation: NCI tumour cell line growth inhibition, 48 h

Before answering, review these 4 worked examples.
C/C(=N\NC(=S)SCc1ccccc1)c1ccccn1 ... 16.1 µM
O=C1/C(=C/c2ccc(Cl)cc2)CCC/C1=C\c1ccc(Cl)cc1 ... 3.75 µM
NC(=O)SCCC(N)C(=O)O (stereo unspecified) ... > 100 µM
Cc1ccc(C(=O)/C=C/c2cccc([N+](=O)[O-])c2)cc1 ... > 62.1 µM

Recorded TGI of O=C1c2ccccc2C2C1C(c1ccccc1)C1(Cc3ccccc3C1=O)C2c1ccccc1 (stereo unspecified) , please.
> 100 µM

Okay, and O=C(NO)[C@@H](Cc1ccccc1)NS(=O)(=O)c1ccc(-c2ccccc2)cc1 ?
> 25 µM
